Listed molecules paired with reported Purity, 1 month
run-description: Long-term/accelerated stability study
Type: physicochemical
condition-context: 40° C., 75%RH, 1 month
measured-metric: Purity, 1 month

molecule="Cn1nccc1Nc1nccc(-c2cc3n(c2)C(=O)N([C@H](CO)c2cccc(Cl)c2)C3)n1.Cn1nccc1Nc1nccc(-c2cc3n(c2)C(=O)N([C@H](CO)c2cccc(Cl)c2)C3)n1.O=C(O)/C=C/C(=O)O [Fumarate in crystal form IV]" measured_metric="Purity, 1 month" observed_result=99.34%
molecule="Br.Br.Cn1nccc1Nc1nccc(-c2cc3n(c2)C(=O)N([C@H](CO)c2cccc(Cl)c2)C3)n1 [Hydrobromide in crystal form β]" measured_metric="Purity, 1 month" observed_result=99.00%
molecule="Cn1nccc1Nc1nccc(-c2cc3n(c2)C(=O)N([C@H](CO)c2cccc(Cl)c2)C3)n1.O=C(O)/C=C/C(=O)O [Fumarate in crystal form II]" measured_metric="Purity, 1 month" observed_result=99.7%
molecule="Br.Cn1nccc1Nc1nccc(-c2cc3n(c2)C(=O)N([C@H](CO)c2cccc(Cl)c2)C3)n1 [Hydrobromide in crystal form α]" measured_metric="Purity, 1 month" observed_result=99.24%

---

Listed compounds paired with reported Purity, Initial
run-description: Long-term/accelerated stability study
Assay type: physicochemical
condition-context: Initial
measured-metric: Purity, Initial (%)

compound="Br.Cn1nccc1Nc1nccc(-c2cc3n(c2)C(=O)N([C@H](CO)c2cccc(Cl)c2)C3)n1 [Hydrobromide in crystal form α]" observed_result=99.43
compound="Cn1nccc1Nc1nccc(-c2cc3n(c2)C(=O)N([C@H](CO)c2cccc(Cl)c2)C3)n1.O=C(O)/C=C/C(=O)O [Fumarate in crystal form II]" observed_result=99.7
compound="Br.Br.Cn1nccc1Nc1nccc(-c2cc3n(c2)C(=O)N([C@H](CO)c2cccc(Cl)c2)C3)n1 [Hydrobromide in crystal form β]" observed_result=99.17
compound="Cn1nccc1Nc1nccc(-c2cc3n(c2)C(=O)N([C@H](CO)c2cccc(Cl)c2)C3)n1.Cn1nccc1Nc1nccc(-c2cc3n(c2)C(=O)N([C@H](CO)c2cccc(Cl)c2)C3)n1.O=C(O)/C=C/C(=O)O [Fumarate in crystal form IV]" observed_result=99.46

---

Listed compounds paired with reported Purity, 1 month
run-description: Long-term/accelerated stability study
Format: physicochemical
condition-context: 25° C., 60%RH, 1 month
measured-metric: Purity, 1 month

compound="Cn1nccc1Nc1nccc(-c2cc3n(c2)C(=O)N([C@H](CO)c2cccc(Cl)c2)C3)n1.Cn1nccc1Nc1nccc(-c2cc3n(c2)C(=O)N([C@H](CO)c2cccc(Cl)c2)C3)n1.O=C(O)/C=C/C(=O)O [Fumarate in crystal form IV]" measured_metric="Purity, 1 month" observed_result=99.40%
compound="Br.Br.Cn1nccc1Nc1nccc(-c2cc3n(c2)C(=O)N([C@H](CO)c2cccc(Cl)c2)C3)n1 [Hydrobromide in crystal form β]" measured_metric="Purity, 1 month" observed_result=98.99%
compound="Cn1nccc1Nc1nccc(-c2cc3n(c2)C(=O)N([C@H](CO)c2cccc(Cl)c2)C3)n1.O=C(O)/C=C/C(=O)O [Fumarate in crystal form II]" measured_metric="Purity, 1 month" observed_result=99.7%
compound="Br.Cn1nccc1Nc1nccc(-c2cc3n(c2)C(=O)N([C@H](CO)c2cccc(Cl)c2)C3)n1 [Hydrobromide in crystal form α]" measured_metric="Purity, 1 month" observed_result=99.33%
